This section presents binders with their documented IC50 values.
target: human immunoglobulin E (hIgE) (human) (UniProt P01854); assay: competition ELISA, hIgE to coated hFcεRIα, pH 7.4
Sequence (P01854 whole entry): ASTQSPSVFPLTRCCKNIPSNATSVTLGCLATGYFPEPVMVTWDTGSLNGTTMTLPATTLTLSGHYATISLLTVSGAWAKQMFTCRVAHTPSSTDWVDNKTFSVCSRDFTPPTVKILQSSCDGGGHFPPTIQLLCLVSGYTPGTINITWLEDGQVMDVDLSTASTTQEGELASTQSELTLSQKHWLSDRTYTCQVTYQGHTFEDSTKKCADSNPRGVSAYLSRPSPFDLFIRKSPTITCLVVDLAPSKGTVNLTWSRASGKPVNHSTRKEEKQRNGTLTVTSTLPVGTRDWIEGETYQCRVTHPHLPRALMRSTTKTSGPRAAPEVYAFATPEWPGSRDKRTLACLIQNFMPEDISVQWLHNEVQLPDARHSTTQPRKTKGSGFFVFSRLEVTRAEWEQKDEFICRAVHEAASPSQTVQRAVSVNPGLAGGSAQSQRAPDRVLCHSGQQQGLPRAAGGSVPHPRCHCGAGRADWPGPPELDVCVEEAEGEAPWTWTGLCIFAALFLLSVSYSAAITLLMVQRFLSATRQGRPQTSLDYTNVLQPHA
Dear colleague, please return just the value in µg/mL, with no unit written.

Enquiry: Quick check: IC50 of 18B9His-hIgG1-WT (antibody, V domains shown) VH: QVQLVESGGGLVQPGGSLRLSCAASGFTFSSYVMSWVRQAPGKGLEWVSSIYSDGSHTYYADSVKGRFTISRDNAKNTLYLQMNSLKSEDTAVYYCAKNLEHYSGSYYYTDPRYDYWGQGTQVTVSS VL: SSALTQPSALSVTLGQTAKITCQGGSLGSSYVHWYQQKPGQAPVLVIHDGDSRPSGIPERFSGSSSGGTATLTISGAQAEDEDDYYCQSADSSGNAVFGGGTHLTVL ?
Return: 0.19

Enquiry: Proceed to 18E2His2-hIgG1-ABDEG (antibody, V domains shown) VH: QLQLVESGGGLVQPGGSLRLSCAASGFTFSSYVMHWVRQAPGKGLEWVSSIYHDGSHTYYADFVKGRFTISRDNAKNTLYLQMNSLKSEDTAVYYCASGTSYSGSYYYTDPFFGSWGQGTQVTVSS VL: NFMLTQPSALSVTLGQTARITCQGDRLGSRYIHWYQQKPPQAPVLVIHDDDRRPSGIPERFSGSSSGGTATLTISGAQAEDDGDYYCQSADSSGNPVFGGGTHLTVL
Return: 1.49

Enquiry: Proceed to 13E4-hIgG1-ABDEG (antibody, V domains shown) VH: ELQLVESGGGLVQPGGSLRLSCAASGFTFSSYVMSWVRQAPGKGLEWVSSIYHDGSHTYYADFVKGRFTISRDNAKNTLYLQMNSLKSEDTAVYYCASGTSYSGSYYYTDPFFGSWGQGTQVTVSS VL: HSAVTQPSALSVTLGQTAKITCQGGSLGSNYAYWYQQKPGQAPVLVIYDDDSRPSGIPERFSGSSSGGTATLTISGAQAEDEGDYYCQSADSNGNAVFGGGTHLTVL
Return: 0.0065
